assay: Clinical trial 005, rifalazil concentration in plasma of tuberculosis patients; type: in vivo, human; conditions: human, plasma, INH + 25 mg KRM; Hour 12; read-out: Rifalazil Concentration in Plasma, Min
result-type: concentration at 12 h (ng/mL)
One number for each entry, in ng/mL.

input: Fill in reported concentration at 12 h for this entry: `CO[C@H]1/C=C/O[C@@]2(C)Oc3c(C)c(O)c4c(=O)c(c5oc6cc(N7CCN(CC(C)C)CC7)cc(O)c6nc-5c4c3C2=O)NC(=O)/C(C)=C\C=C\[C@H](C)[C@H](O)[C@@H](C)[C@@H](O)[C@@H](C)[C@H](OC(C)=O)[C@@H]1C`
output: 11.1
